assay: Plasma concentration of tradipitant 2 hours post-dose in dogs; type: in vivo; settings: male, beagle, dog, oral, 1 mg/kg, 1.0 mg/kg oral, read-out: Concentration of tradipitant in plasma, Mean (SD)
quantity kind: concentration at 2 h (ng/mL)
// note: answer is a bare numeric in ng/mL

-- ask Requested field: concentration at 2 h. Item: `O=C(c1ccccc1Cl)c1cccnc1-c1nnn(Cc2cc(C(F)(F)F)cc(C(F)(F)F)c2)c1-c1ccncc1`
-- reply 133

====

assay: Plasma concentration of tradipitant 2 hours post-dose in dogs; type: in vivo; conditions: male, beagle, dog, oral, 3 mg/kg, 3.0 mg/kg oral, read-out: Concentration of tradipitant in plasma, Mean (SD)
quantity kind: concentration at 2 h (ng/mL)
// note: answer is a bare numeric in ng/mL

-- ask Requested field: concentration at 2 h. Item: `O=C(c1ccccc1Cl)c1cccnc1-c1nnn(Cc2cc(C(F)(F)F)cc(C(F)(F)F)c2)c1-c1ccncc1`
-- reply 300
